Target: hERG (KCNH2) (Homo sapiens, UniProt Q12809)
Sequence (Q12809 whole entry): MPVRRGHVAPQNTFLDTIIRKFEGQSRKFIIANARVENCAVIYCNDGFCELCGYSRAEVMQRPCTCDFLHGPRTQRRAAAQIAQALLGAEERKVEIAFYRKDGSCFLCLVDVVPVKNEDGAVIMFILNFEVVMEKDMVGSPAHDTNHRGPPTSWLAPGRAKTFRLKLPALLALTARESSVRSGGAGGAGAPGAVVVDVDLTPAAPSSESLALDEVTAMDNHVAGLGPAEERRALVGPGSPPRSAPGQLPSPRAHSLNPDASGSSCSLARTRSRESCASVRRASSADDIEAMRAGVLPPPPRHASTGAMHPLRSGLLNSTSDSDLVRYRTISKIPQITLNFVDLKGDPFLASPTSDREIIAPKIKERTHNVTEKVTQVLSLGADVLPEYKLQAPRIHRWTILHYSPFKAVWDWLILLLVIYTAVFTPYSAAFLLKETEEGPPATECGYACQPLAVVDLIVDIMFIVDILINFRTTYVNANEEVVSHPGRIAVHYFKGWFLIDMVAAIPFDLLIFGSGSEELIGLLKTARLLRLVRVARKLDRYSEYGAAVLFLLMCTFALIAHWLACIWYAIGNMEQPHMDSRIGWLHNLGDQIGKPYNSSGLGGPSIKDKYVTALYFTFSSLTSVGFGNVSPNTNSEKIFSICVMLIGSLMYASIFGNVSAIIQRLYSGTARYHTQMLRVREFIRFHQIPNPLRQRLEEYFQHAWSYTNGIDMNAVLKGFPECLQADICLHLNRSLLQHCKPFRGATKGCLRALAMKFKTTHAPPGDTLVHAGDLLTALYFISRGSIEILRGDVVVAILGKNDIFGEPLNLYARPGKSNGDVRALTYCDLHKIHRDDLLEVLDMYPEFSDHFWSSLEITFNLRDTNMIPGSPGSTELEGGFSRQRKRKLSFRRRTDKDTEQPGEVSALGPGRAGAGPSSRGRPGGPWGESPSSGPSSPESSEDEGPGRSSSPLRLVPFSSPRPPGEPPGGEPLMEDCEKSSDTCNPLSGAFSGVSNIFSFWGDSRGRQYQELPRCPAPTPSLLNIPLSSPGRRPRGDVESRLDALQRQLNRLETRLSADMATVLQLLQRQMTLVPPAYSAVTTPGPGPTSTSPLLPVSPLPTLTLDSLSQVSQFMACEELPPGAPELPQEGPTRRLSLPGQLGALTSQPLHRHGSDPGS
Experiment: Inhibition of hERG at 10 uM relative to control
Type: toxicity
Recorded endpoint: inhibition at 10 µM

Take a look at these entries with their results.
{"Line notation": "CC(C)(C)N1C[C@@H](C(=O)Nc2nccn2Cc2ccc(C(F)(F)F)cc2N2CCC(C(=O)O)CC2)[C@H](c2ccc(F)cc2F)C1", "inhibition at 10 µM": "81%"}
{"Line notation": "COc1ccc([C@@H]2CN(C3CCCC3)C[C@@]2(F)C(=O)N2CC[C@@H](c3ccc(C(F)(F)F)cc3N3CCC(C(=O)O)CC3)C2)cc1", "inhibition at 10 µM": "7.5%"}

Determine from records and report inhibition at 10 µM for COC[C@H]1CN(C(=O)[C@]2(F)CN(C3CCCC3)C[C@H]2c2ccc(OC)cc2)C[C@@H]1c1ccc(C(F)(F)F)cc1N1CCC(C(=O)O)CC1
13%

Determine from records and report inhibition at 10 µM for COC[C@H]1CN(C(=O)[C@]2(F)CN(C(C)(C)C)C[C@H]2c2ccc(OC)cc2)C[C@@H]1c1ccc(C(F)(F)F)cc1N1CCC(C(=O)O)CC1
37%

Determine from records and report inhibition at 10 µM for COc1ccc([C@@H]2CN(C3CCCC3)C[C@@]2(F)C(=O)N2C[C@H](CO)[C@@H](c3ccc(C(F)(F)F)cc3N3CCC(C(=O)O)CC3)C2)cc1
> 50%

Determine from records and report inhibition at 10 µM for CC(C)(C)N1C[C@@H](c2ccc(F)cc2F)[C@](F)(C(=O)Nc2nccn2Cc2ccc(C(F)(F)F)cc2N2CCC(C(=O)O)CC2)C1
61%

###

Experiment: Metabolic stability in mouse liver microsomes assessed as intrinsic clearance
Assay type: ADME, Microsome
Conditions: read-out: CLH
So basically: microsomal CLint at 50 µL/min/mg or higher? That is Fulfilled. Lower than 50 µL/min/mg? That is Not fulfilled.

Reference set, count: 5
{"Molecule": "COc1ccc([C@@H]2CN(CCO)C[C@@]2(F)C(=O)N2CCC(c3ccc(C(F)(F)F)cc3N3CCC(C(=O)O)CC3)CC2)cc1", "Classification": "Not fulfilled"}
{"Molecule": "COc1ccc([C@@H]2CN(C(C)(C)C)C[C@@]2(F)C(=O)N2CCC(c3ccc(C(F)(F)F)cc3N3CCC(C(=O)O)CC3)CC2)cc1", "Classification": "Fulfilled"}
{"Molecule": "COc1ccc([C@@H]2CN(C)C[C@@]2(F)C(=O)N2CCC(c3ccc(C(F)(F)F)cc3N3CCC(C(=O)O)CC3)CC2)cc1", "Classification": "Not fulfilled"}
{"Molecule": "COc1ccc([C@@H]2CN(C3CCCC3)C[C@@]2(F)C(=O)N2C[C@H](CO)[C@@H](c3ccc(C(F)(F)F)cc3N3CCC(C(=O)O)CC3)C2)cc1", "Classification": "Fulfilled"}
{"Molecule": "COc1ccc([C@@H]2CN(C3CCCC3)C[C@@]2(F)C(=O)N2CC[C@@H](c3ccc(C(F)(F)F)cc3N3CCC(C(=O)O)CC3)C2)cc1", "Classification": "Fulfilled"}

Now consider the entry below.
Could you please find out whether CC(C)(C)N1C[C@@H](c2ccc(F)cc2F)[C@](F)(C(=O)Nc2nccn2Cc2ccc(C(F)(F)F)cc2N2CCC(C(=O)O)CC2)C1 has microsomal CLint that meets 50 µL/min/mg or exceeds it?
Fulfilled
